Provenance of the data: PubChem BioAssay (NCI)

system: HCT-15 colon; experiment: NCI tumour cell line growth inhibition, 48 h
Listing: TGI of selected compounds

>  <COMPOUND>
CC/C(Cl)=N\OC(=O)Nc1ccc(OC)cc1

>  <TGI>
3.12 µM

$$$$
>  <COMPOUND>
O=C(Nc1ccccc1)c1cc2c(cc1Cl)Sc1nccn1S2(=O)=O

>  <TGI>
> 75.3 µM

$$$$
>  <COMPOUND>
Cc1nc2c(cc1C(=O)NN)c(=O)n(C)c(=O)n2C

>  <TGI>
> 100 µM

$$$$
>  <COMPOUND>
CC1(CCCC2(C)CCNC2=O)OCCO1 (stereo unspecified)

>  <TGI>
> 10 µM

$$$$
>  <COMPOUND>
O=P(O)(O)OC1C(OP(=O)(O)O)C(OP(=O)(O)O)C(OP(=O)(O)O)C(OP(=O)(O)O)C1OP(=O)(O)O (stereo unspecified)

>  <TGI>
> 2000 µM

$$$$
>  <COMPOUND>
CO/C(=N\N=C\c1ccc(Cl)cc1)c1ccncc1

>  <TGI>
> 100 µM

$$$$
>  <COMPOUND>
CC1(C)C2CCC1(CS(=O)(=O)Nc1ccccc1)C(=O)C2 (stereo unspecified)

>  <TGI>
> 100 µM

$$$$
>  <COMPOUND>
CC1=NN(c2cccc(Cl)c2)C2(C1)C(Cl)C(=O)N2c1nc2ccccc2s1 (stereo unspecified)

>  <TGI>
> 100 µM

$$$$
>  <COMPOUND>
CCOC(=O)C1=CN=C2C(=O)N(c3ccccc3)N(C)C2(C)C1=N (stereo unspecified)

>  <TGI>
> 100 µM

$$$$
>  <COMPOUND>
N/C(=N\N=C\c1ccc2c(c1)OCO2)NO

>  <TGI>
> 100 µM

$$$$
>  <COMPOUND>
COc1ccc2oc(S(=O)(=O)N3CC(CCl)c4ccc([N+](=O)[O-])cc43)cc2c1 (stereo unspecified)

>  <TGI>
3.3 µM

$$$$
>  <COMPOUND>
CC(=O)NNc1nc(C)c(C(/C=C/c2ccc(/C=C/C(=N\NC(=O)c3ccncc3)c3sc(NNC(C)=O)nc3C)cc2)=N/NC(=O)c2ccncc2)s1

>  <TGI>
> 100 µM

$$$$
>  <COMPOUND>
[O-][n+]1onc2c3nn(-c4ccccc4)nc3ccc21

>  <TGI>
> 100 µM

$$$$
>  <COMPOUND>
COc1ccc2c(c1)OCC1(O)Cc3ccccc3OC21 (stereo unspecified)

>  <TGI>
> 100 µM

$$$$
>  <COMPOUND>
COc1ccc(C2SC(N)=Nc3c2c(C)nn3C(=O)c2ccncc2)cc1 (stereo unspecified)

>  <TGI>
> 100 µM

$$$$
>  <COMPOUND>
O=C(CC(O)(c1ccccc1)c1ccc(Cl)cc1)NC(=O)c1ccccc1O (stereo unspecified)

>  <TGI>
37.5 µM

$$$$
>  <COMPOUND>
O=C1COC(c2ccccc2O)=NN1CCCN1CCCC1

>  <TGI>
> 100 µM

$$$$
>  <COMPOUND>
CC(=O)OC1COC(N2C(=O)C(=O)c3c(C)cc(Cl)nc32)C(OC(C)=O)C1OC(C)=O (stereo unspecified)

>  <TGI>
> 100 µM

$$$$
>  <COMPOUND>
Cc1cc(S(=O)(=O)Nc2nc3ccsc3c(=O)n2N)c(S)cc1Cl

>  <TGI>
> 100 µM

$$$$
>  <COMPOUND>
CC/C=C/[C@@H]1C=C[C@@H]2CCC[C@H]2[C@@H]1CC[C@H](O)[C@H](C)N

>  <TGI>
2.87 µM

$$$$
>  <COMPOUND>
Cc1cc(NS(=O)(=O)c2ccc(NC(=O)c3ccc4nc5ccccc5c(Nc5ccc(S(=O)(=O)N=C(N)N)cc5)c4c3)cc2)no1

>  <TGI>
29.3 µM

$$$$
